system_tested: T1, RSV postfusion F (postF), subtype B (respiratory syncytial virus subtype B)
T1 construct: also called Postfusion subtype B
method_description: BLI, IgG
measure: Kd (nM)
Number in nM, nothing else.

1) ADI-24793 (antibody, V domains shown, full-length IgG) VH: QVQLVQSGAEVKKPGESLKISCKGSGYSFTSYWIGWVRQMPGKGLEWMGIIYPGDSDTRYSPSFQGQVTISADKSISTAYLQWSSLKASDTAMFYCVMGSYSYYFDYWGQGTLVTVSS VL: NFMLTQPHSVSESPGKTVTISCTRSSGSIASNYVQWYQQRPGSAPTTVIYEDNLRPSGVPDRFSGSIDSSSNSASLTISGLKTEDEADYYCQSYDSSNQVFGGGTKLTVL ... 26.8

Here's the next entry for you.
Request: So what's the measured Kd for this one? ADI-22763 (antibody, V domains shown, full-length IgG) VH: EVQLVESGGGLIQPGGSLRLSCAASGFTFSTYEMNWVRQAPGKGLEWVSSISTSGSTKDYAGSVKGRFTVSRDNAKNSLYLQMNSLRAEDTAIYYCARVYYYDSSGYYLALFDYWGQGTLVTVSS VL: EIVLTQSPSSLSASVGDRVTITCRASQSIASYLNWYQQKPGKAPKLLIYAASSLRSGVPSRFSGSGSGTDFTLTISSLQPEDFATYYCQQSYSTPSLTFGGGTKLEIK
Result: 5.33
